molecular target: human acetyl-CoA carboxylase 2 (ACC2) (Homo sapiens, UniProt O00763); construct: The cDNA encoding amino acids 144 to 2458 of human acetyl-CoA carboxylase 2; made in house; host or cells: Sf9 insect cells (baculovirus, pFastBac1); assay: Acetyl-CoA carboxylase enzyme assay (malonyl-CoA formation by LC/MS/MS); assay type: biochemical; details: recombinant human ACC2 (aa 144-2458); read-out: IC50 ACC2
Sequence (O00763 144-2458): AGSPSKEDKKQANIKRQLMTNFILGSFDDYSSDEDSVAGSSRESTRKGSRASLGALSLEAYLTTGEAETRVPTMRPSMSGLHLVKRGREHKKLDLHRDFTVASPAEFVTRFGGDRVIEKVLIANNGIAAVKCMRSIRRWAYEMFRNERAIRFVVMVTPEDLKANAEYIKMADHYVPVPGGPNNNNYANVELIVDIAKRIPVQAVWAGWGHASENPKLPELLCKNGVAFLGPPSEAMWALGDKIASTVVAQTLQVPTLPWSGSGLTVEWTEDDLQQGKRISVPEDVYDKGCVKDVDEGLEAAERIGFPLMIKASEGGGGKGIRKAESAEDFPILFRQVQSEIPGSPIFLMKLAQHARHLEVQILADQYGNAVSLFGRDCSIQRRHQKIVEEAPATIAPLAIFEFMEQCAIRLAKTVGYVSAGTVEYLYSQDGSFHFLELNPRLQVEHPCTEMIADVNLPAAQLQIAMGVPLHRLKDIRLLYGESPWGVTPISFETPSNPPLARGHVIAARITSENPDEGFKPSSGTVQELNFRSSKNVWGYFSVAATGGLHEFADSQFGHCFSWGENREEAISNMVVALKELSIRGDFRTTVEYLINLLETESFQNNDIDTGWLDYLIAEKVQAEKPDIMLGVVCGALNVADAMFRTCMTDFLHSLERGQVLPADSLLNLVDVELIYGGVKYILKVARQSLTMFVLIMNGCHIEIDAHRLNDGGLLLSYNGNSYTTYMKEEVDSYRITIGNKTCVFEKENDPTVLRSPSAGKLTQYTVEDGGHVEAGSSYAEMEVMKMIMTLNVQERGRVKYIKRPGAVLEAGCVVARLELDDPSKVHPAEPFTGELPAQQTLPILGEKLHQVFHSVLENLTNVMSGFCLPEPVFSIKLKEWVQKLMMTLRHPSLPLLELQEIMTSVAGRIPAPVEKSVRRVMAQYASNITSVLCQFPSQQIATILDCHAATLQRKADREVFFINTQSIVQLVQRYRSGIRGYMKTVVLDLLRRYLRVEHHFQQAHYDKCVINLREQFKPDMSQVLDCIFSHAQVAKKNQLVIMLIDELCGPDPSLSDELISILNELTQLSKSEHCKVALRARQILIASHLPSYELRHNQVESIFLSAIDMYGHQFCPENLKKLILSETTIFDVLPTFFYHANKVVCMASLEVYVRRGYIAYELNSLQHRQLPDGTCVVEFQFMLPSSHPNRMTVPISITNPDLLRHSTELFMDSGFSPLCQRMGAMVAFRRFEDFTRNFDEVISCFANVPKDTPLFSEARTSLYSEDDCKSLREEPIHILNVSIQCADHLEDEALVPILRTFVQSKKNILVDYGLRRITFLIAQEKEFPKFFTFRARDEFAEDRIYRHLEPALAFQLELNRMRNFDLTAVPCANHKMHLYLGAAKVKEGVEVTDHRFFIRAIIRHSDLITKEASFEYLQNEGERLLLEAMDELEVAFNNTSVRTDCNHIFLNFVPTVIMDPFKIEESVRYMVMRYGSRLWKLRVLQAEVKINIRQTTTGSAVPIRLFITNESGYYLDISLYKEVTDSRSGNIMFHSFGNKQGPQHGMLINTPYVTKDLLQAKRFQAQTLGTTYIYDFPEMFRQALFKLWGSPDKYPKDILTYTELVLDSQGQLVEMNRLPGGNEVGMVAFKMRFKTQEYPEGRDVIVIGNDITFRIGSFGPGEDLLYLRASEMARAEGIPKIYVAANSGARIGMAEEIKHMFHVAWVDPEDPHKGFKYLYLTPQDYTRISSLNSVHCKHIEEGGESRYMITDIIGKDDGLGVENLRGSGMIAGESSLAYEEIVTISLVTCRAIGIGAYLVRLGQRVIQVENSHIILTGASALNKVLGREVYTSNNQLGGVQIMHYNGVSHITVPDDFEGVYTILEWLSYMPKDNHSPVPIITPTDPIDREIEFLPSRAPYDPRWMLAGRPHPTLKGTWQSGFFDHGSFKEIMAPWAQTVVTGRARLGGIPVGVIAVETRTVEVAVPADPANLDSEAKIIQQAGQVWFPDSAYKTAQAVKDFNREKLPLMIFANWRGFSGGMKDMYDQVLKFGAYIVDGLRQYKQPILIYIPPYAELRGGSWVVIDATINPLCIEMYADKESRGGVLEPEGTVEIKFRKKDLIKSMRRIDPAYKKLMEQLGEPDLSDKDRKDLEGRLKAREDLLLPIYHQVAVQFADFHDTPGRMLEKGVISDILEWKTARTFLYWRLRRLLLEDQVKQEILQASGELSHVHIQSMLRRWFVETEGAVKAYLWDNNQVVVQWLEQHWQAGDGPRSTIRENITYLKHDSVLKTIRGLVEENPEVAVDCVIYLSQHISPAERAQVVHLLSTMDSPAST
API: label(entry) gives Condition met if the entry's IC50 is strictly smaller than 600 nM; on equality or larger values it gives Condition not met.

*Q* Take the compound "CC(C)[C@H]1COCCN1C(=O)[C@H]1CC[C@H](NS(=O)(=O)c2ccc3cc(-c4ccccc4)[nH]c3c2)CC1" and say whether its IC50 is less than 600 nM.
*A* Condition met

*Q* Take the compound "CC(=O)Nc1ccc(-c2nc3ccc(S(=O)(=O)Nc4ccc(C(=O)OC(C)C)cc4)cc3[nH]2)cc1" and say whether its IC50 is less than 600 nM.
*A* Condition met

*Q* Take the compound "Cn1c(-c2ccccc2)cc2ccc(S(=O)(=O)N[C@H]3CC[C@H](C(=O)N[C@H](CO)c4ccccc4)CC3)cc21" and say whether its IC50 is less than 600 nM.
*A* Condition met

*Q* Take the compound "C[C@@H](NC(=O)[C@H]1CC[C@H](NS(=O)(=O)c2ccc3cc(CCOS(C)(=O)=O)[nH]c3c2)CC1)c1ccc(F)cc1" and say whether its IC50 is less than 600 nM.
*A* Condition met

*Q* Take the compound "CC(C)OC(=O)c1ccc(NS(=O)(=O)c2ccc3[nH]c(Nc4ccc(-n5cccn5)cc4)nc3c2)cc1" and say whether its IC50 is less than 600 nM.
*A* Condition not met

*Q* Take the compound O=C(C1CCC(NS(=O)(=O)c2ccc3cc(-c4ccccc4C(F)(F)F)[nH]c3c2)CC1)N1CCNC(C(F)(F)F)C1 (stereo not shown) and say whether its IC50 is less than 600 nM.
*A* Condition not met

*Q* Take the compound "C[C@@H](NC(=O)[C@H]1CC[C@H](NC(=O)c2ccc3[nH]c(-c4ccccc4)nc3c2)CC1)c1ccc(F)cc1" and say whether its IC50 is less than 600 nM.
*A* Condition not met

----------
molecular target: human acetyl-CoA carboxylase 2 (ACC2) (Homo sapiens); construct: The cDNA encoding amino acids 144 to 2458 of human acetyl-CoA carboxylase 2; made in house; host or cells: Sf9 insect cells (baculovirus, pFastBac1); assay: Acetyl-CoA carboxylase enzyme assay (malonyl-CoA formation by LC/MS/MS); type: biochemical; conditions: recombinant human ACC2 (aa 144-2458); read-out: IC50 ACC2
property measured: pIC50
# reply with the number alone; pIC50 is -log10 of concentration in mol/L

Measured pIC50 of "C[C@@H](NC(=O)[C@H]1CC[C@H](NS(=O)(=O)c2ccc3nc(NCCC(=O)O)ccc3c2)CC1)c1ccc(F)cc1" : 6.52

Measured pIC50 of "Cn1c(-c2ccccc2)cc2ccc(S(=O)(=O)N[C@H]3CC[C@H](C(=O)N4CCN[C@@H](C(F)(F)F)C4)CC3)cc21" : 7.60

Measured pIC50 of "CC(C)[Si](C(C)C)(C(C)C)n1cc(Cl)c2ccc(S(=O)(=O)N[C@H]3CC[C@H](C(=O)N[C@H](C)c4ccc(F)cc4)CC3)cc21" : 7.89

Measured pIC50 of "CC(C)OC(=O)c1ccc(NS(=O)(=O)c2ccc3[nH]c(-c4ccccc4)nc3c2)cc1" : 5.99

Measured pIC50 of "C[C@@H](NC(=O)[C@H]1CC[C@H](NS(=O)(=O)c2ccc3[nH]c(-c4ccc(CN5CCOCC5)cc4)nc3c2)CC1)c1ccccc1" : 7.82

Measured pIC50 of "Cc1cc(CO)ccc1-c1cc2ccc(S(=O)(=O)N[C@H]3CC[C@H](C(=O)N4CCCCC4)CC3)cc2[nH]1" : 7.22

Measured pIC50 of "Cc1cc(-c2ccc3cc(S(=O)(=O)N[C@H]4CC[C@H](C(=O)N[C@H](C)c5ccc(F)cc5)CC4)ccc3n2)ccn1" : 7.70

Measured pIC50 of "CN(Cc1ccccc1)C(=O)[C@H]1CC[C@H](NS(=O)(=O)c2ccc3[nH]c(-c4ccccc4)nc3c2)CC1" : 6.25

Measured pIC50 of "Cc1cc(CO)ccc1-c1cc2ccc(S(=O)(=O)N[C@H]3CC[C@H](C(=O)N4CCNCC4)CC3)cc2[nH]1" : 6.22

Measured pIC50 of "O=C(NCC1CCCCC1)[C@H]1CC[C@H](NS(=O)(=O)c2ccc3[nH]c(-c4ccccc4)nc3c2)CC1" : 6.45

Measured pIC50 of "COCCc1ccc(-c2[nH]c3cc(S(=O)(=O)N[C@H]4CC[C@H](C(=O)N5CCC6(CC5)COC6)CC4)ccc3c2Cl)cc1" : 7.37
